assay: chemical genetic growth profiling, strain panel (AID 1159580);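 also: tested at 20 µM; growth read once vehicle control cultures reached saturation at 30 °C; 1 = growth at the plate median or of vehicle wells; lower values mean less growth of the strain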; settings: S. cerevisiae deletion strains, growth OD, locus YOR270C, strain vph1, hits give low values
Out of some 5,500 compounds screened, about 2,000 (36%) were called active. Another 18% or so got no clear call; they are omitted. This is one part of the list.
Exercise: state measured normalized growth for each of the molecules provided.
Answers are plain numbers.

molecule: NCCS
normalized growth: 0.995

Batch: normalized growth for all items listed.
1. COc1ccc2c(=O)c(-c3cc4c(cc3OC)OCO4)coc2c1
2. O=c1ccc2cc(O[C@@H]3O[C@H](CO)[C@@H](O)[C@H](O)[C@H]3O)c(O)cc2o1
3. Cc1cc(O)c2c(c1O)C(=O)c1c(O)cc(C)c(O)c1C2=O

[1.04, 1, 0.841]

====

assay: chemical genetic growth profiling, strain panel (AID 1159580);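 also: tested at 20 µM; growth read once vehicle control cultures reached saturation at 30 °C; 1 = growth at the plate median or of vehicle wells; lower values mean less growth of the strain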; conditions: S. cerevisiae deletion strains, growth OD, locus YLR262C, strain YPT6, hits give low values
In all, about 5,500 compounds went through this assay and about 2,000 (36%) were called active. Inconclusive results (about 18%) are left out. The list shows a part of the results.
Exercise: state measured normalized growth for each of the compounds provided.
One number for each entry.

Solved entries (count: 8):
compound: COc1c2c(cc3occ(-c4ccc5c(c4)OCO5)c(=O)c13)OC(C)(C)C=C2
normalized growth: 0.937
--
compound: CN1CCN(C(c2ccccc2)c2ccccc2)CC1
normalized growth: 1.03
--
compound: FC(F)(F)c1cc(NC2=NCCN=C(Nc3cc(C(F)(F)F)cc(C(F)(F)F)c3)SS2)cc(C(F)(F)F)c1
normalized growth: 0.979
--
compound: CC(=O)c1csc([N+](=O)[O-])c1
normalized growth: 0.976
--
compound: CCCc1cc(C(=O)Nc2ccc(N(CC)CC)cc2)nn1-c1ccccc1
normalized growth: 0.915
--
compound: COc1ccc2c(=O)c(-c3cc4c(cc3OC)OCO4)coc2c1
normalized growth: 1.06
--
compound: O=c1cc(-c2ccc(O)cc2)oc2cc(O[C@@H]3O[C@H](CO)[C@@H](O)[C@H](O)[C@H]3O[C@@H]3OC[C@](O)(CO)[C@H]3O)cc(O)c12
normalized growth: 1.16
--
compound: CCOc1nc2cccc(C(=O)OC(C)OC(=O)OC3CCCCC3)c2n1Cc1ccc(-c2ccccc2-c2nn[nH]n2)cc1 (stereo not given)
normalized growth: 0.797

Batch: normalized growth for all items listed.
1. N#CCCNc1cc(C(F)(F)F)cc(C(F)(F)F)c1
2. CC(C)=CCc1c(O)cc2occ(-c3ccc4c(c3)OCO4)c(=O)c2c1O

1. 0.844
2. 1.06

====

experiment: chemical genetic growth profiling, strain panel (AID 1159580);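 also: tested at 20 µM; growth read once vehicle control cultures reached saturation at 30 °C; 1 = growth at the plate median or of vehicle wells; lower values mean less growth of the strain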; conditions: S. cerevisiae deletion strains, growth OD, locus YPL241C, strain CIN2, hits give low values
The whole screen tested about 5,500 compounds, of which about 2,000 (36%) were called active. Another 18% or so got no clear call; they are omitted. This is one part of the list.
Param label: returns YES when normalized growth < 1, returns NO otherwise, including exact equality.

Solved entries:
item.smiles: CCOC(=O)c1c(Nc2ccccc2)sc([N+](=O)[O-])c1N
class.assignment: YES

item.smiles: CC1=CC(C)(C)NC(=S)N1
class.assignment: NO

item.smiles: N#C/C(=C\Nc1ccc2c(c1)OCCO2)S(=O)(=O)c1ccc(C(F)(F)F)cn1
class.assignment: YES

item.smiles: N#C/C(=N/Nc1ccc(C(F)(F)F)cc1)C(=O)C1CC1
class.assignment: YES

item.smiles: CC(C)(C)c1ccc(C(=O)N/N=C\c2cc(Cl)cc(Cl)c2O)cc1
class.assignment: YES

I wonder whether CN1CCN(CCCN2c3ccccc3Sc3ccc(Cl)cc32)CC1 has normalized growth below 1. Can you tell?
YES

I wonder whether CCc1cccc(C)c1NC(=O)N1CCN(C(=O)OC(C)(C)C)CC1 has normalized growth below 1. Can you tell?
NO

I wonder whether CCC(=O)Oc1ccc(NC(=S)NCCCO)cc1 has normalized growth below 1. Can you tell?
NO

I wonder whether COc1ccc(/C(C#N)=C/c2ccc(OC)c(OC)c2)cc1 has normalized growth below 1. Can you tell?
YES

Hey, just so you know, these numbers are from PubChem BioAssay AID1159580.
